B1: library; a variant is named by its letters at N, in order (parent)
chain: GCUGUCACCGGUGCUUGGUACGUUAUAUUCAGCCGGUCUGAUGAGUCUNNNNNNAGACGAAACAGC

# Variants of: B1
# Protocol Description: normalized RNA/DNA level without ligand (relative to sTRSVctl = 100) (log10 (% of sTRSVctl)); HEK293T overexpressing SLC46A1; higher = less ribozyme self-cleavage, higher mRNA level
# Condition Notes: without (6R,S)-folinic acid; ligand present: no
Endpoint: normalized RNA/DNA level without ligand (log10)
Keep the answer to the number alone.

Check out these entries, answers already filled in.
>  <Chain>
GCUGUCACCGGUGCUUGGUACGUUAUAUUCAGCCGGUCUGAUGAGUCUCUCGAGAGACGAAACAGC [CUCGAG]

>  <Recorded Value>
1.96

$$$$
>  <Chain>
GCUGUCACCGGUGCUUGGUACGUUAUAUUCAGCCGGUCUGAUGAGUCUCCCUAUAGACGAAACAGC [CCCUAU]

>  <Recorded Value>
2.04

$$$$
>  <Chain>
GCUGUCACCGGUGCUUGGUACGUUAUAUUCAGCCGGUCUGAUGAGUCUACUCGCAGACGAAACAGC [ACUCGC]

>  <Recorded Value>
2.03

$$$$
>  <Chain>
GCUGUCACCGGUGCUUGGUACGUUAUAUUCAGCCGGUCUGAUGAGUCUAGCAGUAGACGAAACAGC [AGCAGU]

>  <Recorded Value>
1.99

$$$$
>  <Chain>
GCUGUCACCGGUGCUUGGUACGUUAUAUUCAGCCGGUCUGAUGAGUCUCGAUACAGACGAAACAGC [CGAUAC]

>  <Recorded Value>
2

$$$$

Query (variant): GCUGUCACCGGUGCUUGGUACGUUAUAUUCAGCCGGUCUGAUGAGUCUGUAGCAAGACGAAACAGC [GUAGCA] ; field requested: normalized RNA/DNA level without ligand (log10)
1.97

Query (variant): GCUGUCACCGGUGCUUGGUACGUUAUAUUCAGCCGGUCUGAUGAGUCUGACACGAGACGAAACAGC [GACACG] ; field requested: normalized RNA/DNA level without ligand (log10)
1.97
